assay: Dissociation constant, pKa of the compound; format: physicochemical
Please provide measured pKa for the entries that follow.

Short answer for CNC(=N)N(C)CCNc1c2ccccc2nc2ccccc12 : pKa was 9

Short answer for CNC(=S)N(C)CCNc1c2ccccc2nc2ccccc12 [ACRAMTU] : pKa was 9

----------
tested on: NCI-H460; experiment: Cytotoxicity against human NCI-H460 cells after 72 hrs by MTS method; assay type: functional, cell-based; conditions: NCI-H460, 72 h
endpoint: IC50

Observed IC50 on NCI-H460, entry CNC(=S)N(C)CCNC(=O)c1cccc2cc3ccccc3nc12 , equals 30.9 µM

Observed IC50 on NCI-H460, entry CNC(=N)N(C)CCNc1c2ccccc2nc2ccccc12 , equals 10.3 µM

Observed IC50 on NCI-H460, entry CNC(=N)N(C)CCNC(=O)c1cccc2cc3ccccc3nc12 , equals > 100 µM

Hey, just so you know, these numbers are from ChEMBL document CHEMBL1157432.
